Reference source for all entries: ChEMBL document CHEMBL1777714

# experimental.details: Cmax in rat at 70 mg/kg, sc
# Type: ADME, organism-based
# Set-up: dose 70 mg/kg, route subcutaneous
# measurement.parameters: in vivo
metric.name: Cmax (µM)
Answers are plain numbers, in µM.

-- ask Indicate the recorded Cmax value for this compound: CCCn1c(CN2C(=O)COc3c(C)cc(C)cc32)nnc1C1Cc2ccccc2C1
-- reply 3.5

###

# Tested on: Rattus norvegicus
# experimental.details: AUC (0 to 24 hrs) in rat at 70 mg/kg, sc
# Format: ADME, organism-based, Plasma
# Parameters: time < 24 hr, dose 70 mg/kg, route subcutaneous
# measurement.parameters: in vivo
metric.name: AUC (µM·h)
Numbers only, in µM·h.

-- ask Fetch value of AUC on Rattus norvegicus for CCCn1c(CN2C(=O)COc3c(C)cc(C)cc32)nnc1C1Cc2ccccc2C1 .
-- reply 61.6
